experiment: Plasma dileucine pharmacokinetics after a single dose of leucine or whey protein isolate in healthy men; conditions: male, human, in vivo
quantity: Cmax (nM)

input_smiles | obs_value
CC(C)C[C@H](N)C(=O)O | 610
